target: HLA-B*15:42; assay: IEDB peptide-MHC binding, purified MHC/competitive/fluorescence; filed as Kd, often an IC50 or EC50 that approximates it; bounds were set here for any values at or beyond the usual limits of such assays; settings: source organism: Entamoeba histolytica HM-1:IMSS
pKd: −log10 of the molar value.
value_kind: pKd

- query_sequence: "SMFERDFHF"
  val: "≤ 5.30"

----------
molecular target: HLA-B*27:03; assay: IEDB peptide-MHC binding, purified MHC/competitive/fluorescence; filed as Kd, often an IC50 or EC50 that approximates it; bounds were set here for any values at or beyond the usual limits of such assays; settings: source organism: Vibrio cholerae V52
value_kind: Kd

- query_sequence: "IGYRLGMGK"
  val: "≥ 20 µM"

----------
target: HLA-B*15:17; assay: IEDB peptide-MHC binding, purified MHC/competitive/fluorescence; filed as Kd, often an IC50 or EC50 that approximates it; bounds were set here for any values at or beyond the usual limits of such assays; conditions: source organism: Vibrio cholerae V52

- query_sequence: "IGYRLGMGK"
  Kd: "≥ 20 µM"

----------
biological target: HLA-A*26:01; test: IEDB peptide-MHC binding, purified MHC/direct/fluorescence; filed as Kd, often an IC50 or EC50 that approximates it; bounds were set here for any values at or beyond the usual limits of such assays; settings: source organism: Pseudomonas aeruginosa
Catalogue of Kd values

- query_sequence: "LPQTRWQAV"
  system: "HLA-A*26:01"
  Kd: "≥ 20 µM"
- query_sequence: "VVAVGGLAI"
  system: "HLA-A*26:01"
  Kd: "≥ 20 µM"

----------
biological target: HLA-B*15:01; assay: IEDB peptide-MHC binding, purified MHC/competitive/fluorescence; filed as Kd, often an IC50 or EC50 that approximates it; bounds were set here for any values at or beyond the usual limits of such assays; conditions: source organism: Orthohantavirus tulaense

- query_sequence: "SLFGAAVSL"
  measurement_unit: "nM"
  Kd: 49.7

----------
target: HLA-A*02:16; experiment: IEDB peptide-MHC binding, purified MHC/direct/fluorescence; filed as Kd, often an IC50 or EC50 that approximates it; bounds were set here for any values at or beyond the usual limits of such assays; settings: source organism: Coxiella burnetii
value_kind: Kd

- query_sequence: "KFFMVHSLK"
  value_kind: "Kd"
  val: "≥ 20 µM"

----------
biological target: HLA-B*44:02; assay: IEDB peptide-MHC binding, purified MHC/direct/fluorescence; filed as Kd, often an IC50 or EC50 that approximates it; bounds were set here for any values at or beyond the usual limits of such assays; details: source organism: Coxiella burnetii
value_kind: Kd

- query_sequence: "VMKRNFIDF"
  system: "HLA-B*44:02"
  value_kind: "Kd"
  val: "≥ 20 µM"

----------
target: HLA-A*26:01; experiment: IEDB peptide-MHC binding, purified MHC/competitive/fluorescence; filed as Kd, often an IC50 or EC50 that approximates it; bounds were set here for any values at or beyond the usual limits of such assays; details: source organism: West Nile virus
value_kind: Kd (µM)

- query_sequence: "EIPDVLNSL"
  val: 0.277

----------
target: HLA-B*18:01; assay: IEDB peptide-MHC binding, purified MHC/direct/fluorescence; filed as Kd, often an IC50 or EC50 that approximates it; bounds were set here for any values at or beyond the usual limits of such assays; details: source organism: West Nile virus
pKd: −log10 of the molar value.
Catalogue of pKd values

- query_sequence: "NEAKVLELL"
  sign: "="
  pKd: 7.42
- query_sequence: "ILRNPGYAL"
  sign: "≤"
  pKd: 4.70
